# Assay Explanation: NCI Yeast Anticancer Drug Screen. Data for the bub3 strain (AID 167)
# Measurement Parameters: S. cerevisiae bub3 mutant strain, at 50.0 µM, hits give high values
Compounds without any hit were thinned out: in the full panel of roughly 79,000, 15% have a hit.
Please provide measured growth inhibition for the entries that follow.
Return type: number; implicit unit %.

Need growth inhibition, item "COc1ccc(/C=C(\C)[N+](=O)[O-])cc1OC"
93.8

Item: "CCCCSP(=S)(SCCCC)c1ccc(Cl)cc1"
19

Item: COc1ccc(C(OCC2OC(n3ccc(NC(=O)c4ccccc4)nc3=O)CC2OP2(=S)SCCS2)(c2ccccc2)c2ccc(OC)cc2)cc1 (centres undefined)
37

Item: "Cc1c[n+]2ccc3ccccc3c2c2ccccc12"
-3.2

Item: "COc1ccc(C(=O)O)cc1OC"
-9.5

Item: "O=C(O)CN(CCN(CC(=O)O)CC(=O)O)CC(=O)O.[Ni+2]"
0.4

Item: "Nc1nc(N)c(-c2ccc(Cl)c(Cl)c2)c(CCc2ccc(CNC(=O)c3cccc(S(=O)(=O)F)c3)cc2)n1"
47.4

Item: "Nc1ccncc1"
-2.55

Item: "Cc1cc[n+](C2=C(Nc3c(C)cccc3C)C(=O)c3ccccc3C2=O)cc1"
48.4

Item: "O=c1c2cc(Br)ccc2[nH]c(=S)n1-c1ccc(Br)cc1"
35.5

Item: CC(=O)Nc1ccc([As](O[As](c2ccc(NC(C)=O)cc2)c2ccc([N+](=O)[O-])cc2)c2ccc([N+](=O)[O-])cc2)cc1 (centres undefined)
99.4

Item: "CC(=O)O.CC(=O)O.CC(=O)O.CC(=O)O.[Cu].[Cu]"
26.9

Item: "CCN(CC)C(=O)N1CC2CCC(C1)N2C"
-9.95

Item: c1cc2n[pH]nc2cn1 (centres undefined)
11.6

Item: "N.N.N.N.N#N.N#N.[Cl-].[Os+6]"
-35.4

Item: Cc1nn(C)pc1P(C)(=S)n1nc(N(C)C)np1 (centres undefined)
-7.55

Item: COc1cc2c(cc1O)N=C[C@@H]1CCC(O)N1C2=O (mixture of isomers)
-2.2

Item: "O=P(Oc1ccccc1)(Oc1ccccc1)Oc1ccccc1Cl"
66.5

Item: "CCCCCCCC(=O)[O][Hg][c]1ccccc1"
99.8

Item: CN(N=O)C1=NC2(CCCCC2)P(=O)(NNc2ncccn2)O1 (centres undefined)
11.2

Item: "C/C=C/CC1(c2ccccc2)C(=O)NC(=S)NC1=O"
-6

Item: "CCCCCCNC(=O)CCl"
7.45

Item: "ClCCN(CCCl)c1ccc(C2N(Cc3ccc(Cl)cc3)CCN2Cc2ccc(Cl)cc2)cc1"
48

Item: CC1(C)CC2(c3ccccc3)CC(c3ccccc3)C1C(C(=O)O)C2C(=O)O (centres undefined)
98.5
